// NB: equality with 3 counts as label 0; only logP strictly below is label 1

For orientation, consider the following solved cases.
COMPOUND: CCN(CC)C(=O)C(C)Oc1cccc2ccccc12 (stereo unspecified)
ASSIGNED CLASS: label 0
--
COMPOUND: COC(=O)N(C(=O)N1CO[C@@]2(C(=O)OC)Cc3cc(Cl)ccc3C2=N1)c1ccc(OC(F)(F)F)cc1
ASSIGNED CLASS: label 0
--
COMPOUND: CC(=O)Nc1cccnc1
ASSIGNED CLASS: label 1
--
COMPOUND: COc1nc(C)nc(NC(=O)NS(=O)(=O)c2ccccc2OCCCl)n1
ASSIGNED CLASS: label 1
--
COMPOUND: O=[N+]([O-])c1ccccc1
ASSIGNED CLASS: label 1

State whether 3 exceeds logP recorded for "CS(=O)(=O)c1ccccc1" . label 1

State whether 3 exceeds logP recorded for COC(=O)C(C)Oc1ccc(Oc2ccc(Cl)cc2Cl)cc1 (stereo unspecified) . label 0

State whether 3 exceeds logP recorded for "CCCCOC(=O)c1ccccc1C(=O)OCCCC" . label 0

State whether 3 exceeds logP recorded for CC1COC(Cn2cncn2)(c2ccc(Oc3ccc(Cl)cc3)cc2Cl)O1 (stereo unspecified) . label 0
